- testedOn: CyclinE1/CDK2 (Homo sapiens, UniProt P24864)
- Construct: purchased Eurofins, discovery 14-475
- assayProcedure: Fluorescence Polarization (FP) competitive binding assay, Cyclin E1/Cdk2
- studyConditions: 10 nM Cyclin E1/Cdk2, 2 nM FAM probe; average of 2-3 independent experiments; read-out: Cyclin E FP IC50
*1 amine or outer side, *2 acyl side, *3 side chain or, on linkers, in order; H or OH if unused. Where a SMILES comes first, the peptide text is derived from it. Bridges are numbered along the chain shown (N, C = ends). [ ]: non-standard residue; d: D form. The star is where a group is joined. X26 = CN([C@@H](Cc1cc(F)ccc1-c1cnn(C2CC2)c1)C(=O)[*:2])[*:1]; NMehhhLys(Me) = CN([C@@H](CCCCCCCN(C)[*:3])C(=O)[*:2])[*:1]; Oxane2carbonyl(2R-CF3) = O=C([C@@]1(C(F)(F)F)CCCCO1)*; cBuCO(3,3-F2-1-CF3) = O=C(C1(C(F)(F)F)CC(F)(F)C1)*; X173 = CN([C@@H](Cc1cc(Cl)cs1)C(=O)[*:2])[*:1]; Pro(trans-4-F) = O=C(O)[C@@H]1C[C@@H](F)CN1; Gly(cPr) = N[C@H](C(=O)O)C1CC1
Please respond with reported IC50 for every item in the list.
One number for each entry, in nM.

Some solved entries appear below for comparison.
{"columns": ["compound", "IC50, nM"],
 "data": [
  ["CC(C)C[C@@H]1NC(=O)[C@@H](N(C)C(=O)[C@@H](NC(=O)[C@@H]2C[C@@H](F)CN2C(=O)C2(C(F)(F)F)CC(F)(F)C2)C2CC2)CCCCCCCN(C)C(=O)[C@H](Cc2cc(Cl)cs2)N(C)C1=O [Example 426] ({cBuCO(3,3-F2-1-CF3)}-[Pro(trans-4-F)][Gly(cPr)][NMehhhLys(Me)]L[X173]; lactam 3-C)", 2060],
  ["CC(C)C[C@@H]1NC(=O)[C@@H](N(C)C(=O)[C@@H](NC(=O)[C@@H]2C[C@@H](F)CN2C(=O)[C@@]2(C(F)(F)F)CCCCO2)C2CC2)CCCCCCCN(C)C(=O)[C@H](Cc2cc(F)ccc2-c2cnn(C3CC3)c2)N(C)C1=O [Example 147] ({Oxane2carbonyl(2R-CF3)}-[Pro(trans-4-F)][Gly(cPr)][NMehhhLys(Me)]L[X26]; lactam 3-C)", 100]
]}

## Input Please look up its IC50: CC(C)C[C@@H]1NC(=O)[C@@H](N(C)C(=O)[C@@H](NC(=O)[C@@H]2C[C@@H](F)CN2C(=O)C2(C(F)(F)F)CC(F)(F)C2)C2CC2)CC=CCCCCN(C)C(=O)[C@H](Cc2cc(F)ccc2-c2cnn(C3CCOC3)c2)N(C)C1=O (stereo partly drawn) [Example 85]
## Output 280

====

Provide the recorded pIC50 for the entries that follow.
- testedOn: CyclinA2/CDK2 (Homo sapiens, UniProt P20248)
- Construct: purchased CRELUX Protein Services
- assayProcedure: Fluorescence Polarization (FP) competitive binding assay, Cyclin A2/Cdk2;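 also: plates equilibrated two hours at room temperature before polarization reading, IC50 fitted from eight-concentration compound titration curves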
*1 amine or outer side, *2 acyl side, *3 side chain or, on linkers, in order; H or OH if unused. Where a SMILES comes first, the peptide text is derived from it. Bridges are numbered along the chain shown (N, C = ends). [ ]: non-standard residue; d: D form. The star is where a group is joined. X148 = CN([C@@H](Cc1cc(Cl)ccc1-c1ccc(S(C)(=O)=O)nc1)C(=O)[*:2])[*:1]; NMehhhLys(Me) = CN([C@@H](CCCCCCCN(C)[*:3])C(=O)[*:2])[*:1]; X139 = Cc1[nH]ncc1-c1ccc(Cl)cc1C[C@@H](C(=O)[*:2])N(C)[*:1]; X2 = CN([C@@H](Cc1cc(Cl)ccc1-c1ccc2ncnn2c1)C(=O)[*:2])[*:1]; X135 = CN([C@@H](Cc1cc(Cl)ccc1-c1cn(C)cn1)C(=O)[*:2])[*:1]; X131 = CN([C@@H](Cc1cc(F)cnc1-c1cnn(C)c1)C(=O)[*:2])[*:1]; Cyclobutanecarbonyl(1-CF3) = O=C(C1(C(F)(F)F)CCC1)*; cBuCO(3,3-F2-1-CF3) = O=C(C1(C(F)(F)F)CC(F)(F)C1)*; Pro(trans-4-F) = O=C(O)[C@@H]1C[C@@H](F)CN1; Gly(cPr) = N[C@H](C(=O)O)C1CC1
One number for each entry, as −log10 of the molar value.

// below: answered compounds
{"columns": ["compound", "testedOn", "pIC50"],
 "data": [
  ["CC(C)C[C@@H]1NC(=O)[C@@H](N(C)C(=O)[C@@H](NC(=O)[C@@H]2C[C@@H](F)CN2C(=O)C2(C(F)(F)F)CC(F)(F)C2)C2CC2)CCCCCCCN(C)C(=O)[C@H](Cc2cc(Cl)ccc2-c2cn(C)cn2)N(C)C1=O [Example 242] ({cBuCO(3,3-F2-1-CF3)}-[Pro(trans-4-F)][Gly(cPr)][NMehhhLys(Me)]L[X135]; lactam 3-C)", "CyclinA2/CDK2 (Homo sapiens, UniProt P20248)", 7.52],
  ["CCN(C(=O)[C@@H](NC(=O)[C@@H]1C[C@@H](F)CN1C(=O)C1(C(F)(F)F)CC(F)(F)C1)C1CC1)[C@H]1CCCCCCCN(C)C(=O)[C@H](Cc2cc(Cl)cnc2OC2CC2)N(C)C(=O)[C@H](CC(C)C)NC1=O", "CyclinA2/CDK2 (Homo sapiens, UniProt P20248)", 7.00],
  ["CC(C)C[C@@H]1NC(=O)[C@@H](N(C)C(=O)[C@@H](NC(=O)[C@@H]2C[C@@H](F)CN2C(=O)C2(C(F)(F)F)CC(F)(F)C2)C2CC2)CCCCCCCN(C)C(=O)[C@H](Cc2cc(Cl)ccc2-c2ccc3ncnn3c2)N(C)C1=O [Example 232] ({cBuCO(3,3-F2-1-CF3)}-[Pro(trans-4-F)][Gly(cPr)][NMehhhLys(Me)]L[X2]; lactam 3-C)", "CyclinA2/CDK2 (Homo sapiens, UniProt P20248)", 7.30]
]}

Fill in pIC50 for each of the 3 compounds listed.
1. CC(C)C[C@@H]1NC(=O)[C@@H](N(C)C(=O)[C@@H](NC(=O)[C@@H]2C[C@@H](F)CN2C(=O)C2(C(F)(F)F)CC(F)(F)C2)C2CC2)CCCCCCCN(C)C(=O)[C@H](Cc2cc(Cl)ccc2-c2ccc(S(C)(=O)=O)nc2)N(C)C1=O [Example 201] ({cBuCO(3,3-F2-1-CF3)}-[Pro(trans-4-F)][Gly(cPr)][NMehhhLys(Me)]L[X148]; lactam 3-C)
2. CC(C)C[C@@H]1NC(=O)[C@@H](N(C)C(=O)[C@@H](NC(=O)[C@@H]2C[C@@H](F)CN2C(=O)C2(C(F)(F)F)CCC2)C2CC2)CCCCCCCN(C)C(=O)[C@H](Cc2cc(F)cnc2-c2cnn(C)c2)N(C)C1=O [Example 245] ({Cyclobutanecarbonyl(1-CF3)}-[Pro(trans-4-F)][Gly(cPr)][NMehhhLys(Me)]L[X131]; lactam 3-C)
3. Cc1[nH]ncc1-c1ccc(Cl)cc1C[C@H]1C(=O)N(C)CCCCCCC[C@H](N(C)C(=O)[C@@H](NC(=O)[C@@H]2C[C@@H](F)CN2C(=O)C2(C(F)(F)F)CC(F)(F)C2)C2CC2)C(=O)N[C@@H](CC(C)C)C(=O)N1C [Example 211] ({cBuCO(3,3-F2-1-CF3)}-[Pro(trans-4-F)][Gly(cPr)][NMehhhLys(Me)]L[X139]; lactam 3-C)

## Output
1. 7.52
2. 7.40
3. 7.30

====

- testedOn: CyclinE1/CDK2 (Homo sapiens, UniProt P24864)
- Construct: purchased Eurofins, discovery 14-475
- assayProcedure: Fluorescence Polarization (FP) competitive binding assay, Cyclin E1/Cdk2;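 also: readings taken after two-hour equilibration at room temperature in HEPES buffer with NaCl, DTT, NP-40 and BSA, IC50 fitted from eight-concentration serial dilution series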
- studyConditions: 10 nM Cyclin E1/Cdk2, 2 nM FAM probe; average of 2-3 independent experiments; read-out: Cyclin E FP IC50
pIC50: −log10 of the molar value. *1 amine or outer side, *2 acyl side, *3 side chain or, on linkers, in order; H or OH if unused. Where a SMILES comes first, the peptide text is derived from it. Bridges are numbered along the chain shown (N, C = ends). [ ]: non-standard residue; d: D form. The star is where a group is joined. X32 = CN([C@@H](Cc1cc(Cl)ccc1-c1ccc(N2CCOCC2=O)cc1)C(=O)[*:2])[*:1]; NMehhhLys(Me) = CN([C@@H](CCCCCCCN(C)[*:3])C(=O)[*:2])[*:1]; cBuCO(3,3-F2-1-CF3) = O=C(C1(C(F)(F)F)CC(F)(F)C1)*; Pro(trans-4-F) = O=C(O)[C@@H]1C[C@@H](F)CN1; Gly(cPr) = N[C@H](C(=O)O)C1CC1
Threshold check on pIC50: at or above 6 gives YES, strictly below gives NO.

Please review the entries below; each comes with its answer.
{"columns": ["compound", "qualitativeLabel"],
 "data": [
  ["CC(C)C[C@@H]1NC(=O)[C@@H](N(C)C(=O)[C@@H](NC(=O)[C@@H]2C[C@@H](F)CN2C(=O)C2(C(F)(F)F)CC(F)(F)C2)C2CC2)CC=CCCCCN(C)C(=O)[C@H](Cc2cc(Cl)ccc2-c2cncnc2)N(C)C1=O", "NO"],
  ["CC(C)C[C@H]1NC(=O)[C@H](N(C)C(=O)[C@H](NC(=O)[C@H]2C[C@H](F)CN2C(=O)C2(C#N)CCC2)C2CC2)CCCCCCCN(C)C(=O)[C@@H](Cc2cc(Cl)ccc2-c2cnn(C)c2)N(C)C1=O", "YES"],
  ["CC(C)C[C@@H]1NC(=O)[C@@H](N(C)C(=O)[C@@H](NC(=O)[C@@H]2C[C@@H](F)CN2C(=O)C2(C(F)(F)F)CC(F)(F)C2)C2CC2)CCCCCCCN(C)C(=O)[C@H](Cc2cc(Cl)ccc2-c2ccc(N3CCOCC3=O)cc2)N(C)C1=O [Example 408] ({cBuCO(3,3-F2-1-CF3)}-[Pro(trans-4-F)][Gly(cPr)][NMehhhLys(Me)]L[X32]; lactam 3-C)", "YES"],
  ["CC(C)C[C@@H]1NC(=O)[C@@H](N(C)C(=O)[C@@H](NC(=O)[C@@H]2C[C@@H](F)CN2C(=O)C2(C(F)(F)F)CCC2)C2CC2)C/C=C\\CCCCN(C)C(=O)[C@H](Cc2cc(Cl)ccc2-c2cnn(C3CC3)c2)N(C)C1=O", "YES"]
]}

Now look at this entry.
## Input Assess whether reported pIC50 for `COCn1cc(-c2ccc(Cl)cc2C[C@H]2C(=O)N(C)CCCCC=CC[C@H](N(C)C(=O)[C@@H](NC(=O)[C@@H]3C[C@@H](F)CN3C(=O)C3(C(F)(F)F)CC(F)(F)C3)C3CC3)C(=O)N[C@@H](CC(C)C)C(=O)N2C)cn1` sits at 6 or higher.
## Output YES
